Tested on: Streptococcus
ASSAY PROTOCOL: GAS UMAA2166 growth inhibition – luminescence, BacTiterGlo, counter-screen for streptokinase expression inhibitor project, dose response (AID 1915);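 note: potency for reduction of bacterial viability or growth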
Type: functional, organism-based
Active and inactive are the calls of the source. Cut-off read from the data, not from the text of the source: actives have a measured EC50 and inactives only a lower limit.
Below is a list of entries, each paired with its recorded EC50 value.

Field: example entries. Status: answers known.
MOLECULE: Cn1c(O)cc(=O)nc1SCC(=O)Nc1cccc2ccccc12
EC50: 24.8 µM (active)
--
MOLECULE: S=C(NCCSCc1ccc(Cl)c(Cl)c1)Nc1ccccc1
EC50: > 150 µM (not active)
--
MOLECULE: CC(C)(C)c1ccc(OCC(=O)N2CCN(c3ncccn3)CC2)cc1
EC50: > 150 µM (not active)
--
MOLECULE: COc1cccc(C(=O)Nc2nc(-c3ccccc3)c(-c3ccccc3)o2)c1
EC50: 5.62 µM (active)
--
MOLECULE: O=C(C1=C(O)C(=O)N(Cc2ccco2)C1c1cccc(Cl)c1)c1ccco1 (configuration not stated)
EC50: > 150 µM (not active)

Observed EC50 on Streptococcus for Oc1c(/C=N/c2cccc3cccnc23)sc2ccccc12 , please.
9.99 µM (active)

Which measured EC50 belongs to CCOC(=O)c1ccc(Oc2c[nH]nc2-c2ccc(OCC(=O)NN)cc2O)cc1 , tested on Streptococcus?
> 150 µM (not active)

Request - read-out EC50 | tested on Streptococcus | molecule CCOC(=O)c1sc(NC(=O)Nc2cccc(Cl)c2)cc1C
4.1 µM (active)

###

ASSAY PROTOCOL: Trypanosoma cruzi growth suppression in host cells – NIH3T3 host cells, beta-gal luminescence, confirmation (AID 2044);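 note: intracellular parasites grown in NIH/3T3 mouse fibroblasts as host cells; luminescent beta-galactosidase reporter signal from transgenic T. cruzi replicating inside host cells; inhibitors lower the luminescence signal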
Type: functional, cell-based
Active and inactive are the calls of the source. Rule as the data show it: actives have a measured EC50 and inactives only a lower limit.
MEASUREMENT NAME: EC50

Solved entries:
COMPOUND: Cc1cc2[nH]c3c(c[n+](C)c4ccccc34)c2cc1C
MEASUREMENT NAME: EC50
RESULT: 680 nM (active)
--
COMPOUND: Cc1ccc(-n2c(-c3ccccc3)cc(/C=N/NC(=O)CC#N)c2-c2ccccc2)cc1
MEASUREMENT NAME: EC50
RESULT: 1720 nM (active)
--
COMPOUND: CCCCOc1ccc(/C=C/C2=CC(C)(C)NC(S)=N2)cc1OCC
MEASUREMENT NAME: EC50
RESULT: 774 nM (active)
--
COMPOUND: O=S(=O)(c1ccc(F)cc1)c1nc(-c2ccccc2F)oc1N1CCCCC1
MEASUREMENT NAME: EC50
RESULT: 1870 nM (active)
--
COMPOUND: O=C(OCn1ncc(Cl)c(Cl)c1=O)c1ccc(F)cc1
MEASUREMENT NAME: EC50
RESULT: 1160 nM (active)

Item under review: C=CCNC(=S)N/N=C/c1ccc(OCc2ccccc2Cl)cc1 . Reported EC50?
1650 nM (active)

Which EC50 value is on record for CCOc1ccccc1OCCOCCN1CCN(Cc2ccccc2)CC1 ?
633 nM (active)

GET /values?readout=EC50&item= Cc1cc(C)c2nc(NNC(=O)c3ccc(S(=O)(=O)N4CCc5ccccc5C4)cc3)sc2c1
661 nM (active)

What does the data say about its EC50? Entry: CNC(=O)c1nnsc1S(=O)(=O)c1ccc(Cl)cc1
1240 nM (active)

What EC50 value was documented for this compound, N=C(N)Nc1nc(-c2ccccc2)c2ccccc2n1 ?
142 nM (active)

# EC50 lookup, item CCCCNC(=O)/C(=C\c1ccc([N+](=O)[O-])o1)NC(=O)c1ccccc1
863 nM (active)

Endpoint output: EC50 of COc1cccc(NC(=O)COC(=O)c2c3c(nc4ccccc24)CCC(C)C3)c1 (configuration not stated) . Value?
2180 nM (active)
